From: patent US10144742B2

Biological target: hNAMPT protein (Homo sapiens (Human))
Sequence (P43490 whole entry): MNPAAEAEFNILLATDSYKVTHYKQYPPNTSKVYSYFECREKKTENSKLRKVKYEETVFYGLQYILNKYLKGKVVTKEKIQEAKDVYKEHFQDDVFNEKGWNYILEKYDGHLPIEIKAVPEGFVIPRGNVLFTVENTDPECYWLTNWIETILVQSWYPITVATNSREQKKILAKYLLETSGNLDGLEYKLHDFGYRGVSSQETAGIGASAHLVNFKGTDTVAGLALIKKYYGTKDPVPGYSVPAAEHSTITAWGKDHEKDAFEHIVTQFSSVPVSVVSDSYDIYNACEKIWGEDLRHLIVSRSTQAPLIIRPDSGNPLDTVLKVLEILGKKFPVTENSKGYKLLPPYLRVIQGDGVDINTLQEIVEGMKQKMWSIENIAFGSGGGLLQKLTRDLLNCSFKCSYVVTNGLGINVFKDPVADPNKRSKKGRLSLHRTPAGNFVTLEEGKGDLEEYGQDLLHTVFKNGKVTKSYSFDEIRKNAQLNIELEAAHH
Test: NAMPT enzyme assay (TR-FRET/HTRF, BodiPY ligand, anti 6His-Tb)
Type: binding
Details: NAMPT inhibition, IC50 range class; read-out: IC50
pIC50: −log10 of the molar value.
value-type: pIC50

> print(dat)
                                    compound  value.observed
 1  Nc1ccc(CCCNC(=O)c2ccc3nc(-c4ccc(F)cc4)c(-c4ccc(F)cc4)nc3c2)cn1 [Compound I-419]    6.00 to 6.30
 2  COc1cc(-c2nc3cc(C(=O)NCCCc4nccn4C)ccc3nc2-c2ccc(F)cc2)c(F)cn1 [Compound I-519]          > 7.00
 3  O=C(NCCCc1ncc[nH]1)c1ccc2nc(-c3ccc(F)cc3)c(-c3cc4ccccc4s3)nc2c1 [Compound I-412]    6.30 to 7.00
 4  COc1cc(-c2nc3cc(C(=O)NCCCc4ncc[nH]4)ccc3nc2-c2ccc(F)cc2)ccc1F [Compound I-488]          > 7.00
 5  O=C(NCCCc1cnccn1)c1ccc2nc(N3CCCCC3)c(-c3ccc(F)cc3)nc2c1 [Compound I-441]    6.00 to 6.30
 6  O=C(NCc1ccc2nccn2c1)c1ccc2nc(-c3ccc(Cl)cc3)c(-c3ccc(Cl)cc3)nc2c1 [Compound I-487]    6.30 to 7.00
 7  Cc1ccc(-c2nc3cc(C(=O)NCCCc4ncc[nH]4)ccc3nc2-c2ccc(F)cc2)cc1C [Compound I-433]    6.30 to 7.00
 8  O=C(NCCCc1ncc[nH]1)c1ccc2nc(-c3ccc(F)cc3)c(-c3cc(C(F)(F)F)ccc3F)nc2c1 [Compound I-451]          > 7.00
 9  C#CCOc1nc2ccc(C(=O)NCCCc3ncc[nH]3)cc2nc1-c1ccc(F)cc1 [Compound I-462]          > 7.00
10  Cc1noc(C)c1COc1nc2ccc(C(=O)NCCCc3ncc[nH]3)cc2nc1-c1ccc(F)cc1 [Compound I-446]          > 7.00
11  C#Cc1ccc(-c2nc3cc(C(=O)NCCCc4ncc[nH]4)ccc3nc2-c2ccc(F)cc2)cc1 [Compound I-416]    6.30 to 7.00
12  N#CCCOc1nc2ccc(C(=O)NCCCc3ncc[nH]3)cc2nc1-c1ccc(F)cc1 [Compound I-496]    6.30 to 7.00
13  Cc1ccc(-c2nc3cc(C(=O)NCCCc4ncc[nH]4)ccc3nc2-c2ccc(F)cc2)s1 [Compound I-473]    6.30 to 7.00
14  O=C(NCCCc1ncc[nH]1)c1ccc2nc(-c3ccc(F)cc3)c(-c3cc(OC(F)(F)F)ccc3Cl)nc2c1 [Compound I-432]    6.30 to 7.00
15  O=C(NCCCc1ncc[nH]1)c1ccc2nc(-c3ccc(Cl)s3)c(-c3ccc(F)cc3)nc2c1 [Compound I-483]    6.30 to 7.00
